protocol-summary: chemical genetic growth profiling, strain panel (AID 1159580);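 also: tested at 20 µM; growth read once vehicle control cultures reached saturation at 30 °C; 1 = growth at the plate median or of vehicle wells; lower values mean less growth of the strain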
test-parameters: S. cerevisiae deletion strains, growth OD, locus YPL031C, strain PHO85, hits give low values
In all, about 5,500 compounds went through this assay and about 2,000 (36%) were called active. About 18% were inconclusive and are not listed. This is one part of the list.

[
  {
    "smiles-str": "Cc1c(C)c(C)c(CSC(N)=Nc2ccc(F)cc2)c(C)c1C",
    "normalized growth": 0.929
  },
  {
    "smiles-str": "O=C(NC(=O)c1c(F)cccc1Cl)OCc1ccc(Cl)cc1Cl",
    "normalized growth": 0.887
  },
  {
    "smiles-str": "Cc1cc(Cl)ccc1NC(=S)NNC(=S)Nc1ccc(F)cc1",
    "normalized growth": 0.899
  },
  {
    "smiles-str": "Cc1ccc(S(=O)(=O)CCSC2=CC(=O)CC(C)(C)S2)cc1",
    "normalized growth": 0.961
  },
  {
    "smiles-str": "CC(=O)c1sc(SCCS(=O)(=O)c2ccc(C)cc2)c2c1CC(C)(C)CC2=O",
    "normalized growth": 0.818
  },
  {
    "smiles-str": "O=C(c1ccccc1)c1cc(Cl)ccc1NC(=S)Nc1ccc(F)cc1",
    "normalized growth": 0.969
  },
  {
    "smiles-str": "N#CCC(=O)NNC(=S)Nc1ccc(Cl)c(Cl)c1",
    "normalized growth": 0.916
  }
]

====

protocol-summary: chemical genetic growth profiling, strain panel (AID 1159580);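 also: tested at 20 µM; growth read once vehicle control cultures reached saturation at 30 °C; 1 = growth at the plate median or of vehicle wells; lower values mean less growth of the strain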
test-parameters: S. cerevisiae deletion strains, growth OD, locus YAR019C, strain CDC15
About 2,000 (36%) of roughly 5,500 compounds were called active. Inconclusive results (about 18%) are left out. Cut-off read from the data, not from the text of the source: active = normalized growth mostly below about 0.91 (no sharp cut-off); inconclusive = no clear call, values can overlap the other calls; inactive = mostly above about 0.92. This is one part of the list.
Classes used: Y for active, N for inactive

[
  {
    "smiles-str": "CCCc1c(C(=O)Sc2ccccn2)cnn1-c1ccc(Cl)cc1",
    "discrete-label": "N"
  },
  {
    "smiles-str": "COc1ccc(C(=O)CSC2=NCCc3ccccc32)cc1",
    "discrete-label": "N"
  },
  {
    "smiles-str": "CCCc1c(C(=O)NNc2cccc(Cl)c2)cnn1-c1ccccc1",
    "discrete-label": "N"
  },
  {
    "smiles-str": "O=[N+]([O-])/C=C/c1ccsc1",
    "discrete-label": "Y"
  },
  {
    "smiles-str": "CC(=O)Nc1ccc([N+](=O)[O-])cc1[N+](=O)[O-]",
    "discrete-label": "Y"
  },
  {
    "smiles-str": "FC(F)(F)c1cccc(NC(=S)Nc2csc(C(F)(F)F)c2-c2ccccc2)c1",
    "discrete-label": "N"
  }
]

====

protocol-summary: chemical genetic growth profiling, strain panel (AID 1159580);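 also: tested at 20 µM; growth read once vehicle control cultures reached saturation at 30 °C; 1 = growth at the plate median or of vehicle wells; lower values mean less growth of the strain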
test-parameters: S. cerevisiae deletion strains, growth OD, locus YBR023C, strain chs3, hits give low values
About 2,000 (36%) of roughly 5,500 compounds were called active. Another 18% or so got no clear call; they are omitted. Some of the results follow.
readout-type: normalized growth

[
  {
    "molecule": "COc1ccc(C(Cl)=C(c2ccc(OC)cc2)c2ccc(OC)cc2)cc1",
    "recorded-value": 0.993
  },
  {
    "molecule": "O=C1C=CC2=C3c4cc(O)c(O)cc4C[C@@]3(O)COC2=C1",
    "recorded-value": 0.99
  },
  {
    "molecule": "COc1cc(C(=O)NCc2ccc(OCCN(C)C)cc2)cc(OC)c1OC",
    "recorded-value": 0.985
  },
  {
    "molecule": "O=C(O)CCCCC1CCSS1 (stereo unspecified)",
    "recorded-value": 0.977
  },
  {
    "molecule": "O=C1C=CC2=C3c4cc(O)c(O)cc4CC3(O)COC2=C1O (stereo unspecified)",
    "recorded-value": 0.949
  },
  {
    "molecule": "C=CC(C1=CC(=O)C=CC1=O)c1ccccc1 (stereo unspecified)",
    "recorded-value": 1.01
  },
  {
    "molecule": "CN(C)CCOc1ccc(/C(=C(/CCCl)c2ccccc2)c2ccccc2)cc1",
    "recorded-value": 0.0684
  },
  {
    "molecule": "CCCCC1=NC2(CCCC2)C(=O)N1Cc1ccc(-c2ccccc2-c2nn[nH]n2)cc1",
    "recorded-value": 1.01
  },
  {
    "molecule": "CC/C(=C(\\c1ccccc1)c1ccc(OCCN(C)C)cc1)c1ccccc1",
    "recorded-value": 0.0749
  },
  {
    "molecule": "CCN(CC)CCOc1ccc2c(c1)C(=O)c1cc(OCCN(CC)CC)ccc1-2",
    "recorded-value": 0.98
  },
  {
    "molecule": "O[N+]1=CC=CCC1=S.On1ccccc1=S.[Zn]",
    "recorded-value": 0.0675
  }
]
